- measured on: T1, yeast Smt3 (Smt3-6xHis) (S. cerevisiae, UniProt Q12306 1-101 = SUMO, U-[13C,15N] labelled in the NMR experiments)
- T1 chain: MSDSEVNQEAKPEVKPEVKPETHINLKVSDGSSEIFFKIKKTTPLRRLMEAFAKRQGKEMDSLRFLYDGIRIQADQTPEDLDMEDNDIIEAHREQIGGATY
- assay procedure: ITC; Smt3 300 uM
property label: Kd (µM)

[[record]]
binder = "ENDIIMVSTDE [synthetic Mre11-SIM3 peptide, wild type]"
property_label = "Kd"
endpoint_value = 15.3

